These measurements were taken from ChEMBL document CHEMBL1201862.

Below is a list of entries, each paired with its recorded GI50 value.
- System: Hs-578T
- Procedure summary: NCI tumour cell line growth inhibition, 48 h
Active and inactive are the calls of the source. No stated cut-off is given here; in the data, active = GI50 up to about 1.1 µM and inactive = higher. Where a SMILES comes first, the peptide text is derived from it. [ ]: non-standard residue; d: D form. The star is where a group is joined. Bn2Val = CC(C)[C@@H](C(=O)*)N(Cc1ccccc1)Cc1ccccc1; NHPiperonyl = c1cc2c(cc1CN*)OCO2; NMeV = CN[C@H](C(=O)O)C(C)C; dNMeA = CN[C@H](C)C(=O)O

1) COc1cc2ccccc2oc1=O ... 45.9 µM (inactive)
2) CCOC(=O)CCC(NC(=O)c1ccc(OCc2nc3cc(C(F)(F)F)ccc3nc2-c2ccccc2)cc1)C(=O)OCC (centres undefined) ... 35.8 µM (inactive)
3) CC(C)[C@H](NC(=O)[C@H](C(C)C)N(Cc1ccccc1)Cc1ccccc1)C(=O)N(C)[C@H](C(=O)N1CCC[C@H]1C(=O)N(C)[C@H](C)C(=O)NCc1ccc2c(c1)OCO2)C(C)C (Bn2Val-V[NMeV]P[dNMeA]-NHPiperonyl) ... 39.1 µM (inactive)
4) Cc1cn(C2CC(O)C(COC(N)=O)O2)c(=O)[nH]c1=O (centres undefined) ... > 100 µM (inactive)
5) CN(C)N1C(=O)SCC(c2ccccc2)(c2ccccc2)C1=O ... > 100 µM (inactive)

Moving on to the next compound.
Prompt: For the compound Cc1ncc([N+](=O)[O-])n1CCNC(=O)CCCCn1ccnc1[N+](=O)[O-] , what GI50 is on record?
Response: > 100 µM (inactive)
